Recorded values, source patent US6303618A.

# system.under.test: CDK4 (Homo sapiens)
# Sequence (P11802 whole entry, species assumed): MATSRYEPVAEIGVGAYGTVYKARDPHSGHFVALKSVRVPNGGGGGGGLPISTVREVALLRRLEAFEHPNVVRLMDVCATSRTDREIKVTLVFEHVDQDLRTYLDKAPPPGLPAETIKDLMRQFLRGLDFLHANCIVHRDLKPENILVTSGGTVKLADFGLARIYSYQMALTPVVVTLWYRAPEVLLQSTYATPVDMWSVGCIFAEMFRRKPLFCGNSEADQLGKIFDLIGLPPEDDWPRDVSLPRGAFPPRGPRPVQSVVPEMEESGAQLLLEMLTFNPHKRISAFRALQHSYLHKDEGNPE
# Sequence (P24385 whole entry partner, species assumed): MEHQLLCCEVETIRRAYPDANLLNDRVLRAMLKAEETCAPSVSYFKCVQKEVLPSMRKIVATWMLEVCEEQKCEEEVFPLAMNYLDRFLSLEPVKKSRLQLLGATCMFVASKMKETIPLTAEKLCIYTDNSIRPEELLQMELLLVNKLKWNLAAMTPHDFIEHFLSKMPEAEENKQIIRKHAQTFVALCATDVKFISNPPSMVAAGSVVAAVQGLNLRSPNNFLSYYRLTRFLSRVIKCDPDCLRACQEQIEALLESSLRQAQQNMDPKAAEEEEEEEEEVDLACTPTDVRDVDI
# experiment.summary: CDK inhibition assay, CDK4
# Type: biochemical
# setup.conditions: CDK4; Table 1; read-out: IC50 CDK4
For each entry below, report its pIC50 value.
Kindly note that pIC50 refers to -log10 of the concentration in mol/L and answer with the value alone.

Q) Give the measured pIC50 of Nc1nc(OCCC2CCCCC2)c2[nH]cnc2n1 [NU6023, 2-amino-6-cyclohexylethyloxypurine] .
A) 4.16

Q) What would you report for CC(C)CCOc1nc(N)nc2nc[nH]c12 [NU2053, O^6-(3'-Methyl)butylguanine] ?
A) 4.15

----------
# system.under.test: CDK1 (p34 cdc2)/cyclin B
# experiment.summary: CDK inhibition assay (histone H1 kinase), CDK1
# Type: biochemical, starfish (Marthasterias glacialis)
# setup.conditions: CDK1; Table 1
pIC50: −log10 of the molar value.
endpoint.name: pIC50

Q) I'm curious: which pIC50 was measured for COCC(COc1nc(N)nc2nc[nH]c12)OC (stereo not shown) tested on CDK1 (p34 cdc2)/cyclin B?
A) < 4.00

Q) What would you report for C=CCOc1nc(N)nc2c1ncn2Cc1ccccc1 ?
A) < 3.00

Q) What would you report for C=CCOc1nc(N)nc2ncn(CC=C)c12 ?
A) < 3.00

Q) What would you report for CCC(COc1nc(N)nc2[nH]cnc12)(OC)OC ?
A) < 4.00
